Readings of IC50 for the listed compounds
Experimental Target: AChE from electric eel (Electrophorus electricus)
Sequence (O42275 24-633): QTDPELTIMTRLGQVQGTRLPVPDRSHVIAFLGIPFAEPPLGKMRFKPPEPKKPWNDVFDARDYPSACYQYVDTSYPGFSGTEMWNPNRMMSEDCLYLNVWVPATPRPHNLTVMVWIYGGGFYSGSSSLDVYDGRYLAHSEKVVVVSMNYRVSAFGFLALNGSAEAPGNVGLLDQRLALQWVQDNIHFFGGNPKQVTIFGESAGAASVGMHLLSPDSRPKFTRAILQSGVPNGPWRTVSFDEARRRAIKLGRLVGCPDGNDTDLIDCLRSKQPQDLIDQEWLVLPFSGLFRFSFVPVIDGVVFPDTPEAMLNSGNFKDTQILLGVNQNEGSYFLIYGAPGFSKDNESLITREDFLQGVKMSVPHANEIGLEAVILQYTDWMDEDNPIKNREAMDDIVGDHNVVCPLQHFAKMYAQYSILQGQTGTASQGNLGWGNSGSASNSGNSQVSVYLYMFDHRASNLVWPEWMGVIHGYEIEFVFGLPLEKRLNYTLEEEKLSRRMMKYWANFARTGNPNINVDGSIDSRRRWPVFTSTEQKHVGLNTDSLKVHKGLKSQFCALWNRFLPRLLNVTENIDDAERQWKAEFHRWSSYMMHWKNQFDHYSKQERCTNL
Supply the numeric figure in nM, leaving out any unit text.

IC50 value, target or system AChE from electric eel (Electrophorus electricus), for O=C(NCCCCCCCCCNc1c2c(nc3ccccc13)CCCC2)c1cc(Cl)cc(Cl)c1 : 111

IC50 value, target or system AChE from electric eel (Electrophorus electricus), for O=C(NCCCNc1c2c(nc3ccccc13)CCCC2)c1cc(Cl)cc(Cl)c1 : 139

IC50 value, target or system AChE from electric eel (Electrophorus electricus), for O=C(NCCCCNc1c2c(nc3ccccc13)CCCC2)c1cc(Cl)cc(Cl)c1 : 25

IC50 value, target or system AChE from electric eel (Electrophorus electricus), for Cl.O=C(NCCNc1c2c(nc3ccccc13)CCCC2)c1cc(Cl)cc(Cl)c1 : 690

IC50 value, target or system AChE from electric eel (Electrophorus electricus), for O=C(NCCCCCCCCNc1c2c(nc3ccccc13)CCCC2)c1cc(Cl)cc(Cl)c1 : 958

IC50 value, target or system AChE from electric eel (Electrophorus electricus), for O=C(NCCCCCCCNc1c2c(nc3ccccc13)CCCC2)c1cc(Cl)cc(Cl)c1 : 115

----------
Readings of Selectivity for AChE for the listed compounds
Experimental Target: AChE from electric eel (Electrophorus electricus)
Assay Procedure: biochemical
Assay Context: IC50 (BuChE)/IC50(AChE)

Example cases with answers are listed next.
query_smiles=O=C(NCCCCNc1c2c(nc3ccccc13)CCCC2)c1cc(Cl)cc(Cl)c1 measured_result=4.864
query_smiles=O=C(NCCCNc1c2c(nc3ccccc13)CCCC2)c1cc(Cl)cc(Cl)c1 measured_result=0.174
query_smiles=O=C(NCCCCCCCCCNc1c2c(nc3ccccc13)CCCC2)c1cc(Cl)cc(Cl)c1 measured_result=2.914

Data point: O=C(NCCCCCCCNc1c2c(nc3ccccc13)CCCC2)c1cc(Cl)cc(Cl)c1 ; Selectivity for AChE = 0.289

Data point: O=C(NCCCCCCCCNc1c2c(nc3ccccc13)CCCC2)c1cc(Cl)cc(Cl)c1 ; Selectivity for AChE = 0.634

Data point: Cl.O=C(NCCNc1c2c(nc3ccccc13)CCCC2)c1cc(Cl)cc(Cl)c1 ; Selectivity for AChE = 0.203

----------
Assay Procedure: in vitro
Assay type: cell-based
Assay Context: human, human hepatic stellate cells (HSCs); HSCs, 1 µM, 24 h; read-out: hepatotoxicity (MTT; cell viability as percentage of control)
Attribute Measured: viability at 24 h, 1 µM

Data point: O=C(NCCCCNc1c2c(nc3ccccc13)CCCC2)c1cc(Cl)cc(Cl)c1 ; viability at 24 h, 1 µM = 95.4%

----------
Assay Procedure: in vitro
Type: cell-based
Assay Context: human
Attribute Measured: viability at 24 h, 10 µM

Data point: Nc1c2c(nc3ccccc13)CCCC2 [Tacrine, reference compound] ; viability at 24 h, 10 µM = 90.3%
